# System: HT29 colon
# assay_details: NCI tumour cell line growth inhibition, 48 h
value_kind: TGI

compound	endpoint_result
C[C@@H]1O[C@@H](O[C@H]2C[C@@H](O)[C@]3(CO)C4C(CC[C@]3(O)C2)[C@@]2(O)CC[C@H](C3=CC(=O)OC3)[C@@]2(C)C[C@H]4O)[C@H](O)[C@H](O)[C@H]1O (some centres undefined)	0.0836 µM
CC(=O)O[C@]1(C(C)=O)CC[C@H]2[C@@H]3C[C@H](C)C4=CC(=O)C=C[C@]4(C)[C@@]3(F)[C@@H](O)C[C@@]21C	> 100 µM
Cc1cc(N(CCCl)CCCl)ccc1C=Nc1cccnc1	> 100 µM

Now for a further compound.
Request - read-out TGI | tested on HT29 colon | compound O=C(NC1CCCCC1)c1c(O)[nH]c(=S)[nH]c1=O
> 100 µM

###

The entries below are paired with their reported TGI.
# Tested on: IGROV1 ovarian
# assay_details: NCI tumour cell line growth inhibition, 48 h

Sample answers from the record:
compound	value_kind	endpoint_result
Cc1c2c(n3c(nc4ccccc43)c1C#N)N(c1ccc(Cl)cc1)CC2	TGI	> 100 µM
NC1=CN(CCCO)C2=N/C(=C\c3ccco3)C(=O)N12	TGI	> 100 µM
O=C1CC(NC(=O)C(F)(F)F)c2c(Br)sc(N3CCC(c4ccccc4)CC3)c21 (stereo not drawn)	TGI	> 100 µM
O=C(NCc1cn(Cc2cccc(Oc3ccccc3)c2)nn1)c1cccnc1Nc1ccccc1	TGI	> 100 µM
CCOC(=O)c1ccc(NC2Oc3cc4c(cc3C(c3cc(OC)c(OC)c(OC)c3)C2C)OCO4)cc1 (stereo not drawn)	TGI	> 51 µM
COc1ccc(-c2nc(-c3nc4ccc(F)cc4[nH]3)cc3c2[nH]c2ccccc23)cc1	TGI	9.7 µM
OCC(O)CC[CH2][Sn]([c]1ccccc1)([c]1ccccc1)[c]1ccccc1 (stereo not drawn)	TGI	33.7 µM
CC(=O)O[C@]1(C(C)=O)CC[C@H]2[C@@H]3C[C@H](C)C4=CC(=O)C=C[C@]4(C)[C@@]3(F)[C@@H](O)C[C@@]21C	TGI	> 100 µM

Now for a further compound.
TGI for Fc1cccc(F)c1C1SCC2=Nc3ccccc3CN21 (stereo not drawn) ?
> 100 µM

###

# Test system: M14 melanoma
# assay_details: NCI tumour cell line growth inhibition, 48 h
value_kind: TGI (µM)
Give your result in µM as a bare value.

Sample answers from the record:
compound	endpoint_result
CCCCCCC1CCC2CCCC(C)N12 (stereo not given)	76.9
O=C(CCSC(CC(=O)c1ccc(Cl)cc1)c1ccc(Cl)cc1)Nc1ccc(Cl)cc1 (stereo not given)	28.2
COc1ccc(CN2C(=O)CCC/C=C\[C@H]2CI)cc1	22.6

TGI for CN(CCNC(=O)c1[nH]nc2c1ccc1ccccc12)CCNC(=O)c1[nH]nc2c1ccc1ccccc12 ?
3.49

###

# Tested on: MCF7 breast
# assay_details: NCI tumour cell line growth inhibition, 48 h
value_kind: GI50

Sample answers from the record:
compound	GI50
c1ccc2c(c1)O[As](O[As]1Oc3ccccc3O1)O2	1.86 µM
O=C1c2ccn(CCCCN3CCOCC3)c2C(=O)c2c1c(O)c1ccccc1c2O	6.26 µM
CO/N=C(\c1ccccc1)c1cnn(-c2ccccc2)c1N	> 25 µM

Now for a further compound.
Request - read-out GI50 | tested on MCF7 breast | compound COC1/C=C/O[C@@]2(C)Oc3c(C)c(O)c4c(O)c(cc(O)c4c3C2=O)NC(=O)/C(C)=C\C=C\[C@H](C)C(O)[C@@H](C)[C@@H](O)[C@@H](C)[C@H](OC(C)=O)[C@@H]1C (some centres undefined)
17.3 µM
